system: MDA-MB-231 breast; test: NCI tumour cell line growth inhibition, 48 h
observable: TGI

>>> meas_value("CCOC(=O)c1nc2ccccc2nc1Nc1ccc(Cl)c(Cl)c1")
"> 100 µM"
>>> meas_value("Cc1ccccc1C1=C/C(=C(\\SS/C(C(=O)c2ccc(OCC(=O)O)c(Cl)c2Cl)=C2\\C=C(c3ccccc3C)SS2)C(=O)c2ccc(OCC(=O)O)c(Cl)c2Cl)SS1")
"47.5 µM"
>>> meas_value("COc1cc(C2C3=C(COC3=O)Oc3cc4c(cc32)OCO4)cc(OC)c1OC (stereo unspecified)")
"0.694 µM"
>>> meas_value("CN1C(=O)/C(=C/c2c(Cl)[nH]c3ccccc23)c2ccccc21")
"> 100 µM"
>>> meas_value("COc1ccc(NC(=S)N=Nc2c(O)[nH]c3ccccc23)cc1")
"> 90.8 µM"
>>> meas_value("CC1=C(C)C(=O)C2=C(OCCO2)C1=O")
"11.2 µM"
>>> meas_value("S=c1[nH]n2c(Cc3ccccc3)nnc2s1")
"> 100 µM"
>>> meas_value("CC(C)(OCc1ccccc1)c1ccccc1P(c1ccccc1)c1ccccc1")
"> 100 µM"
>>> meas_value("c1ccc2c(c1)c(N1CCCCC1)cc1nc3c(cc(N4CCCCC4)c4ccccc43)nc12")
"> 100 µM"
>>> meas_value("NC(=O)NC(=O)c1cccc(NC(=O)CI)c1")
"0.866 µM"
>>> meas_value("CC1=NN(c2nc(N)nc(COCc3nc(N)nc(N4N=C(C)CC4(C)C)n3)n2)C(C)(C)C1")
"> 100 µM"
>>> meas_value("Clc1ccc(N2CCN(CCCN3CCN(c4cccc(Cl)c4)CC3)CC2)cc1")
"18.6 µM"
>>> meas_value("Cc1ccc2nc(-n3c(/C=C/c4ccccc4O)nc4ccccc4c3=O)sc2c1")
"> 100 µM"
>>> meas_value("O=C(O[C@H]1CN[C@H](C#Cc2cc3ncnc(Nc4ccc5c(cnn5Cc5ccccc5)c4)c3s2)C1)N1CCOCC1")
"> 25 µM"
>>> meas_value("CCc1nnc(CC)n1-n1c(Cc2ccccc2)n[nH]c1=O")
"> 100 µM"
>>> meas_value("O=C(CN1CCN(c2ccccc2)CC1)c1ccc2[nH]c(=O)oc2c1")
"> 100 µM"
>>> meas_value("O=C(CCN1CCCCC1)Nc1ccc2sc3ccccc3c(=O)c2n1")
"44.4 µM"
>>> meas_value("O=C(Nc1ccc(Cl)cc1)Nc1ccc(Oc2nncc3ccccc23)cc1")
"3.68 µM"
>>> meas_value("CNC(=S)N/N=C(\\C)c1cc(OC)ccc1O")
"> 100 µM"
>>> meas_value("COc1cc2c(/C=C3/C(=O)Nc4ccc(O)cc43)c(Cl)[nH]c2cc1C")
"4.25 µM"
>>> meas_value("Cc1ccc(-c2cc3c(NC(=O)C4CC4)ncnc3o2)cc1")
"> 25 µM"

----------
tested on: HS 578T breast; assay: NCI tumour cell line growth inhibition, 48 h; in the data active = GI50 below about 0.43 µM; inactive = the rest
Outcomes: True = active, False = inactive

>>> group_label("CSCCC(NC(=O)CNC(=O)C(CC(=O)O)NC(=O)C(NC(=O)C(NC(=O)C(NC(=O)CNC(=O)C(CCC(N)=O)NC(=O)C(CCSC)NC(=O)C(CC(=O)O)NC(=O)C(C)NC(=O)C(C)NC(=O)C(NC(=O)C(CO)NC(=O)C(N)CC(C)C)C(C)O)C(C)C)C(C)C)C(C)O)C(=O)NC(C)C(=O)NC(CO)C(=O)NCC(=O)NC(CC(C)C)C(=O)NC(CC(=O)O)C(=O)NC(CCCCN)C(=O)NC(CC(=O)O)C(=O)NC(Cc1ccc(O)cc1)C(=O)NC(CC(C)C)C(=O)NC(CCCCN)C(=O)N1CCCC1C(=O)NC(CC(=O)O)C(=O)NC(CC(=O)O)C(=O)O (stereo not drawn)")
"False"
>>> group_label("C/C=C(\\C)C(=O)O[C@H]1C=CC(=O)O[C@H]1CC[C@H](O)[C@H](C)O")
"False"
>>> group_label("CN1C(=O)CC2(C)c3cc(O)ccc3N(C)C12 (stereo not drawn)")
"False"
>>> group_label("Oc1ccccc1N=Cc1c(O)ccc2ccccc12")
"False"
>>> group_label("O=C1/C(=C/c2ccc(O)c(O)c2)COc2ccc(-c3ccccc3)cc21")
"False"
>>> group_label("Cc1ccc(S(=O)(=O)NC2=NCCN2C(=S)SN2CCn3c2nsc3=S)cc1")
"False"
>>> group_label("Nc1cc(N)c2nc(-c3ccccc3)c(Sc3ccc(Cl)c(Cl)c3)nc2c1")
"False"
>>> group_label("Cn1c2c(c3ccc(-c4ccn[nH]4)cc3c1=O)C(=O)c1ccccc1-2")
"False"
>>> group_label("CCN(CC)CCNC(=O)c1cn2ncnc(Oc3ccc(NC(=O)Nc4ccc(Cl)c(C(F)(F)F)c4)cc3)c2c1C")
"False"
>>> group_label("NCCCCCCn1c2c(c3ccccc3c1=O)C(=O)c1ccccc1-2")
"False"
>>> group_label("Clc1ccc(N2CCN(CCCN3CCN(c4cccc(Cl)c4)CC3)CC2)cc1")
"False"
>>> group_label("Cc1cc(C)c(C#N)c(SCC(=O)c2sc3c(C#N)c(C)cc(C)[n+]3c2[O-])n1")
"True"
>>> group_label("CS(=O)(=O)Nc1ccc(Nc2c3ccccc3nc3cc(N)ccc23)cc1")
"False"

----------
system: HCT-15 colon; assay: NCI tumour cell line growth inhibition, 48 h
Listed here: items and their measured TGI.
observable: TGI

>>> meas_value("CN(CC(=O)O)S(=O)(=O)c1ccc(F)cc1")
"> 100 µM"
>>> meas_value("COc1ccc(NC(=S)N=Nc2c(O)[nH]c3ccccc23)cc1")
"> 100 µM"
>>> meas_value("CC(=O)CC(O)(C(F)(F)Cl)C(F)(F)Cl")
"> 10 µM"
>>> meas_value("O=C1OC(c2cccc(C(F)(F)F)c2)c2ccc3ccccc3c21 (stereo not given)")
"> 100 µM"
>>> meas_value("CC1=C(C(=O)NNC(=O)c2ccccc2)CC(C(=O)NNC(=O)c2ccccc2)=C(C)N1")
"> 100 µM"
>>> meas_value("COc1ccc(N=Nc2c(O)ccc3ccccc23)cc1")
"> 100 µM"
>>> meas_value("COC(=O)C1CCC(NC(=O)c2csc([C@@H](C[C@H](C(C)C)N(C)C(=O)[C@@H](NC(=O)[C@H]3CCCCN3C)C(C)C)OC(C)=O)n2)CC1 (stereo not given in full)")
"> 33.3 µM"
>>> meas_value("CCOC(=O)C1C(=O)CC(O)(c2ccccc2)C(C(=O)OCC)C1c1ccc(N(C)C)cc1 (stereo not given)")
"> 100 µM"
>>> meas_value("Nc1nc(=S)c2c(ncn2CC(O)CO)[nH]1 (stereo not given)")
"> 100 µM"
>>> meas_value("CCCc1cc2c(cc1O)CC[C@@H]1[C@@H]2CC[C@]2(C)[C@@H](O)CC[C@@H]12")
"18.1 µM"
>>> meas_value("CN1C(=O)/C(=C/c2c(Cl)[nH]c3ccccc23)c2ccccc21")
"> 100 µM"
>>> meas_value("COc1ccc2cc(C(=O)Nc3ccc(O)c(C(=O)O)c3)ccc2c1OC")
"> 100 µM"
>>> meas_value("O=C(Nc1nc2ncn(CCNCCn3cnc4nc(NC(=O)c5ccccc5)[nH]c(=O)c43)c2c(=O)[nH]1)c1ccccc1")
"> 100 µM"
>>> meas_value("N#Cc1cc(-c2nc3ccc(F)cc3s2)ccc1N")
"> 100 µM"
>>> meas_value("Cc1ccc(Nc2nc(C)c(C(=O)CC(=O)C(=O)Nc3ccc(Cl)cc3)s2)cc1")
"> 100 µM"
>>> meas_value("COc1cc(/C=C/c2ccc(/C=C/c3cc(OC)c(OC)c(OC)c3)cc2)cc(OC)c1OC")
"> 100 µM"
>>> meas_value("CCOCc1cc(=O)c2c(O)cc3c(c2o1)CCC(C)(C)O3")
"> 100 µM"
>>> meas_value("CCCN1C(=O)/C(=C/c2cccc(O)c2)SC1=Nc1ccccc1")
"29.6 µM"
>>> meas_value("CCOC(=O)C(Cc1ccc([N+](=O)[O-])cc1)NC(=O)CC1c2ccccc2-c2ccccc21 (stereo not given)")
"> 100 µM"
>>> meas_value("O=C(/C=C(\\N=P(c1ccccc1)(c1ccccc1)c1ccccc1)C(F)(F)C(F)(F)C(F)(F)C(F)(F)C(F)(F)C(F)(F)C(F)(F)F)c1ccccc1")
"> 100 µM"

----------
test system: NCI/ADR-RES ovarian; assay: NCI tumour cell line growth inhibition, 48 h; in the data active = GI50 below about 0.43 µM; inactive = the rest
Outcome codes: class 1 for active, class 0 for inactive

>>> group_label("CC(C)CCC[C@@H](C)[C@H]1CCC2C3=CCn4c(=O)ccc(=O)n4C3CC[C@@]21C (some centres undefined)")
"class 0"
>>> group_label("O=C1/C(=C/c2ccc(O)c(O)c2)COc2ccc(-c3ccccc3)cc21")
"class 0"
>>> group_label("Cc1cc(C(=O)NC(C)(C)C)cc(C#Cc2ccc3c4c(oc3c2)C(C)(C)c2cc(NS(C)(=O)=O)ccc2C4=O)n1")
"class 0"
>>> group_label("O=C(Nc1ccc(Cl)cc1)Nc1ccc(Oc2nncc3ccccc23)cc1")
"class 0"
>>> group_label("Cc1ccc(S(=O)(=O)NC2=NCCN2C(=S)SN2CCn3c2nsc3=S)cc1")
"class 0"
>>> group_label("CCCN1C(=O)/C(=C/c2cccc(O)c2)SC1=Nc1ccccc1")
"class 0"
>>> group_label("CCN(CC)CCOc1nc2c3ccc(Cl)cc3nn2c2ccccc12")
"class 0"
>>> group_label("C/C=C(\\C)C(=O)O[C@H]1C=CC(=O)O[C@H]1CC[C@H](O)[C@H](C)O")
"class 0"
>>> group_label("CS(=O)(=O)Nc1ccc(Nc2c3ccccc3nc3cc(N)ccc23)cc1")
"class 0"
>>> group_label("Cn1c2c(c3ccc(-c4ccn[nH]4)cc3c1=O)C(=O)c1ccccc1-2")
"class 0"
>>> group_label("COc1cc(-c2cc(/C=C/C(=O)c3ccc(N)cc3)[nH]n2)cc(OC)c1OC")
"class 0"
>>> group_label("CN1C(=O)CC2(C)c3cc(O)ccc3N(C)C12 (centres undefined)")
"class 0"
>>> group_label("O=C1c2ccccc2C(=O)c2c1ccc(C(Br)Br)c2Cl")
"class 0"
>>> group_label("CN1CCN(c2ccc(N3Cc4ccccc4OC4=C3C(=O)c3c(O)ccc(O)c3C4=O)cn2)CC1")
"class 1"
